experiment: Caco-2 cell permeability test; type: in vitro ADME; details: human, pH 7.4, Caco-2, 10 μM, A to B
MEASUREMENT TYPE: Papp A→B at 120 min, 10 μM (×10⁻⁶ cm/s)
One number for each entry, in ×10⁻⁶ cm/s.

COMPOUND | Papp A→B at 120 min, 10 μM (×10⁻⁶ cm/s)
CNC(=O)c1ccc(NCC#Cc2nc3c(NC4CCC(N5CCOCC5)C[C@@H]4F)cccn3c2CC(F)(F)F)c(OC)c1 (stereo partly drawn) [Compound 44] | 3.54

Could you tell me Papp A→B at 120 min, 10 μM for each of these compounds? They are listed below.
1. CNC(=O)c1ccc(NCC#Cc2nc3c(NC4CC[C@@H](N5CC6(CCC6)C5)C[C@@H]4F)cccn3c2CC(F)(F)F)c(OC)c1 (stereo partly drawn) [Compound 42]
2. CNC(=O)c1ccc(NCC#Cc2nc3c(NC4CC[C@@H](N5CC6(COC6)C5)C[C@@H]4F)cccn3c2CC(F)(F)F)c(OC2CC2)c1 (stereo partly drawn) [Compound 57]

A.
2.16
3.7

* * *

molecular target: p53 Y220C (Homo sapiens, UniProt P04637, P309S/R273H/Y220C); construct: a truncated mutant containing only amino acids 94-312 of p53; assay: DNA binding test (HTRF): binding of P53Y220C protein to DNA; conditions: HTRF, activation of p53 Y220C (aa 94-312) binding to biotin DNA
Sequence (P04637 94-312, stated change not applied): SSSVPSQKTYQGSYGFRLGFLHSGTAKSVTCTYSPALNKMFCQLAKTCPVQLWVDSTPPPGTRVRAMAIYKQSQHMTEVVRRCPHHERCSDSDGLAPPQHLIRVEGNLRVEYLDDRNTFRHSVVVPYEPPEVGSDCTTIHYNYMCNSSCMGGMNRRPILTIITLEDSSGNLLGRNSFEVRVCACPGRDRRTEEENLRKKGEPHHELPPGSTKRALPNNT
pEC50: −log10 of the molar value.
Give pEC50 for every item shown.

Use these answered entries as a reference point.
COMPOUND | ENDPOINT RESULT
CN1CCC(Nc2cccn3c(CC(F)(F)F)c(-c4ncc(CNC(=O)c5ccn(C(C)(C)C)c5)s4)nc23)CC1 | 6.30 to 7.00
COc1cc(C(=O)NC2CC2)ccc1NCC#Cc1nc2c(NC3CC[C@@H](N4CC5(COC5)C4)C[C@@H]3F)cccn2c1CC(F)(F)F (stereo partly shown) | > 7.00
CN1CCC(Nc2cccn3c(CC(F)(F)F)c(-c4noc(CNC(=O)c5ccn(C(C)(C)C)c5)n4)nc23)CC1 | 6.00 to 6.30
COc1cc(S(N)(=O)=O)ccc1NCC#Cc1nc2c(NC3CCN(C)CC3)cccn2c1CC(F)(F)F | 6.30 to 7.00
COc1cc(S(C)(=O)=O)ccc1NCC#Cc1nc2c(NC3CCN(C)CC3)cccn2c1CC(F)(F)F | 6.30 to 7.00

Could you tell me pEC50 for each of these compounds? They are listed below.
1. COc1cc(S(=N)(=O)C2CC2)ccc1NCC#Cc1cc2c(NC3CCN(C)CC3F)cccc2n1CC(F)(F)F (single isomer, unassigned) [Compound 39d]
2. CNC(=O)c1ccc(NCC#Cc2nc3c(NC4CC[C@@H](N5CCC5)C[C@@H]4F)cccn3c2CC(F)(F)F)c(OC)c1 (stereo partly shown)
3. [2H]C([2H])([2H])NC(=O)c1ccc(NCC#Cc2cc3c(NC4CCC(N5CC6(COC6)C5)CC4F)cccn3c2CC(F)(F)F)c(OCF)c1 (stereo not shown) [Compound 78d]
4. COc1cc(S(C)(=O)=O)ccc1NCC#Cc1nc2c(N[C@@H]3CCN(C)C[C@@H]3F)cccn2c1CC(F)(F)F
5. CNC(=O)c1ccc(NCC#Cc2nc3c(NC4CCN(C)CC4)cccn3c2CC(F)(F)F)c(F)c1
6. CNC(=O)c1ccc(NCC#Cc2nc3c(NC4CCS(=O)(=O)CC4)cccn3c2CC(F)(F)F)c(OC)c1
7. CNC(=O)c1ccc(NCC#Cc2nc3c(N[C@@H]4CCN(CCOC)C[C@@H]4F)cccn3c2CC(F)(F)F)c(OC)c1

A.
> 7.00
> 7.00
> 7.00
6.30 to 7.00
6.30 to 7.00
6.30 to 7.00
6.30 to 7.00

Q. Look up pEC50 of [2H]C([2H])([2H])NC(=O)c1ccc(NCC#Cc2nc3c(NC4CCC(N5CCOCC5)CC4F)cccn3c2CC(F)(F)F)c(OC([2H])([2H])[2H])c1 (single isomer, unassigned) [Compound 70d] and report it.
A. > 7.00

* * *

Give EC50 for every item shown.
Target: p53 Y220C (Homo sapiens, UniProt P04637, P309S/R273H/Y220C)
Construct: a truncated mutant containing only amino acids 94-312 of p53; made in house; host or cells: E. coli
Assay: DNA binding test (HTRF): binding of P53Y220C protein to DNA
Assay type: biochemical
Details: HTRF, activation of p53 Y220C (aa 94-312) binding to biotin DNA
Protocol: In order to detect the ability of the aforementioned compounds to increase the binding of P53Y220C protein to DNA, the binding activity of p53 Y220C was measured by homogeneous time-resolved fluorescence (HTRF). Recombinant His-tagged p53 Y220C for HTRF measurement was expressed in bacteria E. coli. […] The plate was then read for signal values on an Envision (PerkinElmer 2105-0020) plate reader at 665 nm and 615 nm, respectively. […]

Use these answered entries as a reference point.
COMPOUND | MEASURED TARGET | MEASUREMENT TYPE | ENDPOINT RESULT
CNC(=O)c1ccc(NCC#Cc2cc3c(NC4CCC(N5CC6(COC6)C5)CC4F)cccn3c2CC(F)(F)F)c(OC)c1 (single isomer, unassigned) [Compound 65d] | p53 Y220C (Homo sapiens, UniProt P04637, P309S/R273H/Y220C) | EC50 | < 0.1 µM
COc1cc(S(=N)(=O)C2CC2)ccc1NCC#Cc1cc2c(NC3CCN(C)CC3F)cccc2n1CC(F)(F)F (single isomer, unassigned) [Compound 39c] | p53 Y220C (Homo sapiens, UniProt P04637, P309S/R273H/Y220C) | EC50 | < 0.1 µM
CNC(=O)c1ccc(NCC#Cc2nc3c(NC4CCOCC4)cccn3c2CC(F)(F)F)c(OC)c1 | p53 Y220C (Homo sapiens, UniProt P04637, P309S/R273H/Y220C) | EC50 | 0.5 to 1 µM
COCCNC(=O)c1ccc(NCC#Cc2nc3c(N[C@@H]4CC[C@@H](N5CC6(COC6)C5)C[C@@H]4F)cccn3c2CC(F)(F)F)c(OC)c1 | p53 Y220C (Homo sapiens, UniProt P04637, P309S/R273H/Y220C) | EC50 | < 0.1 µM
[2H]C([2H])([2H])NC(=O)c1ccc(NCC#Cc2cc3c(NC4CCC(N5CC6(COC6)C5)CC4F)cccn3c2CC(F)(F)F)c(OC2CC2)c1 (stereo not shown) [Compound 76d] | p53 Y220C (Homo sapiens, UniProt P04637, P309S/R273H/Y220C) | EC50 | < 0.1 µM
CNC(=O)c1ccc(NCC#Cc2nc3c(N[C@@H]4CC[C@@H](N5CC6(CCC6)C5)C[C@@H]4F)cccn3c2CC(F)(F)F)c(OC)c1 | p53 Y220C (Homo sapiens, UniProt P04637, P309S/R273H/Y220C) | EC50 | < 0.1 µM

Could you tell me EC50 for each of these compounds? They are listed below.
1. CCNC(=O)c1ccc(NCC#Cc2nc3c(N[C@@H]4CC[C@@H](N5CC6(COC6)C5)C[C@@H]4F)cccn3c2CC(F)(F)F)c(OC)c1
2. CNC(=O)c1ccc(NCC#Cc2nc3c(NC4CCC(N5CC6(COC6)C5)CC4F)cccn3c2CC(F)(F)F)c(OC)c1 (single isomer, unassigned) [Compound 35-6f]

A.
< 0.1 µM
< 0.1 µM

Could you tell me EC50 for each of these compounds? They are listed below.
1. CNC(=O)c1ccc(NCC#Cc2nc3c(NC4CCC(N5CC6(COC6)C5)CC4F)cccn3c2CC(F)(F)F)c(OC)c1 (single isomer, unassigned) [Compound 35-6j]
2. [2H]C([2H])([2H])NC(=O)c1ccc(NCC#Cc2cc3c(NC4CCC(N5CC6(COC6)C5)CC4F)cccn3c2CC(F)(F)F)c(OC([2H])([2H])[2H])c1 (single isomer, unassigned) [Compound 74d]
3. CNC(=O)c1ccc(NCC#Cc2nc3c(NC4CCN(CC(O)COC)CC4)cccn3c2CC(F)(F)F)c(OC)c1 (stereo not shown)
4. Cc1cc[nH]c1C(=O)NCC#Cc1nc2c(NC3CCN(C)CC3)cccn2c1CC(F)(F)F
5. CNC(=O)c1ccc(NCC#Cc2nc3c(NC4CCN(C)CC4)nccn3c2CC(F)(F)F)c(OC)c1
6. COc1cc(S(C)(=N)=O)ccc1NCC#Cc1nc2c(NC3CCN(C)CC3)cccn2c1CC(F)(F)F (stereo not shown)

A.
1. < 0.1 µM
2. < 0.1 µM
3. 0.1 to 0.5 µM
4. 0.5 to 1 µM
5. 0.5 to 1 µM
6. 0.1 to 0.5 µM

* * *

test system: NUGC-3 cells; assay: NUGC-3 cell proliferation assay (CTG); assay type: cell-based, human; settings: Homo sapiens, NUGC-3, 144 h, 6 days, CTG
MEASUREMENT TYPE: GI50

MOLECULE | ENDPOINT RESULT
COCCNC(=O)c1ccc(NCC#Cc2nc3c(NC4CCN(C)CC4)cccn3c2CC(F)(F)F)c(OC)c1 | 1000 to 5000 nM

Could you tell me GI50 for each of these molecules? They are listed below.
1. COc1cc(C(=O)NC2CC2)ccc1NCC#Cc1nc2c(NC3CC[C@@H](N4CC5(COC5)C4)C[C@@H]3F)cccn2c1CC(F)(F)F (stereo partly shown)
2. CN1CCC(Nc2cccn3c(CC(F)(F)F)c(-c4nnc(CNC(=O)c5cnn(C6CCOC6)c5)s4)nc23)CC1 (stereo not shown)

A.
["< 1000 nM", "≥ 5000 nM"]
